- systemName: B2-AR (Homo sapiens)
- Construct: expressed in transfected cells; host or cells: CHO-K1
- Sequence (P07550 whole entry, species assumed): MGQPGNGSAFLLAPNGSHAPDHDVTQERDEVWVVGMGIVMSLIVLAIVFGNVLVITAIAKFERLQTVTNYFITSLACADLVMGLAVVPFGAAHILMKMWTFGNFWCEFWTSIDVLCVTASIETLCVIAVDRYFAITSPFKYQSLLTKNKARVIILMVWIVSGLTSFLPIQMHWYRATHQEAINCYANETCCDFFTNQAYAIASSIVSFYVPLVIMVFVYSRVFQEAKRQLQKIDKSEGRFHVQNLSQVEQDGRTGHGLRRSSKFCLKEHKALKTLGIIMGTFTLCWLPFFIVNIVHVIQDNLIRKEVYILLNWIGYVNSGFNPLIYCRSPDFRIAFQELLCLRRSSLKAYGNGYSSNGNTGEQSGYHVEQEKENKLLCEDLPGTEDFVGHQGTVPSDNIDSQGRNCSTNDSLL
- testDescription: cAMP Gs dynamic HTRF assay, cells expressing beta-adrenergic receptor (CHO-K1), B2-AR
- Format: cell-based
- settings: CHO-K1 cells, cAMP HTRF; read-out: pEC50 [B2-AR] (converted)
Quick list: EC50 per entry.
reportedEndpoint: EC50

CNc1ncc([C@@H](O)CNC(C)(C)C)cn1 [I-70]: 10 to 100 nM
O[C@@H](CNC1CC1)c1cccc2[nH]cc(F)c12 [I-108]: 10 to 100 nM
CC(C)NC[C@H](O)c1cccc2[nH]nc(Cl)c12 [I-101]: < 10 nM
O[C@@H](CNCC1CC1)c1ccc(F)c2[nH]ncc12 [I-75]: < 10 nM
CC(C)(C)NC[C@H](O)c1ccc(Cl)c2[nH]nc(F)c12 [I-189]: < 10 nM

###

- systemName: B2-AR (Homo sapiens)
- Construct: expressed in transfected cells; host or cells: CHO-K1
- testDescription: cAMP Gs dynamic HTRF assay, cells expressing beta-adrenergic receptor (CHO-K1), B2-AR
- Format: cell-based
- settings: CHO-K1 cells, cAMP HTRF; read-out: pEC50 [B2-AR] (converted)
reportedEndpoint: EC50

Cc1ncccc1[C@@H](O)CNC(C)(C)CO [I-176]: 0.1 to 1 µM
C[C@H](NC[C@H](O)c1ccc(Cl)c2[nH]ncc12)C(C)(C)C [I-3]: < 0.01 µM
Cc1n[nH]c2cccc([C@@H](O)CNC(C)C)c12 [I-170]: 0.01 to 0.1 µM
CC(C)(NC[C@H](O)c1cc(F)cc2[nH]ncc12)C1CC1 [I-19]: < 0.01 µM
CCC(C)(C)NC[C@H](O)c1cccc2[nH]ncc12 [I-47]: < 0.01 µM
CCC(CC)NC[C@H](O)c1cc(F)cc2[nH]ncc12 [I-44]: < 0.01 µM
Cc1n[nH]c2cccc([C@@H](O)CNC3CCC3)c12 [I-166]: 0.01 to 0.1 µM
O[C@@H](CNCC1CC1)c1cccc2[nH]ncc12 [I-76]: < 0.01 µM
CC(C)(CO)NC[C@H](O)c1cc(C#N)cc2[nH]ncc12 [I-151]: 0.1 to 1 µM
CC(C)(C)NC[C@H](O)c1cccc2[nH]nc(C3CC3)c12 [I-125]: 0.1 to 1 µM
CC1(NC[C@H](O)c2cccc3[nH]ncc23)CC1 [I-129]: < 0.01 µM
CC[C@H](C)NC[C@H](O)c1cc(F)cc2[nH]ncc12 [I-34]: < 0.01 µM
CC(C)(NC[C@H](O)c1cccc2[nH]ncc12)C1CC1 [I-12]: < 0.01 µM
Cc1ccc2cc([C@@H](O)CNC(C)(C)C)ccc2n1 [I-82]: > 1 µM
Cc1nc(N)c(Cl)cc1[C@@H](O)CNC1CC(F)(F)C1 [I-178]: 0.1 to 1 µM
Cc1n[nH]c2cc(F)cc([C@@H](O)CNC(C)(C)C)c12 [I-61]: < 0.01 µM
CC1(NC[C@H](O)c2cc(C#N)cc3[nH]ncc23)CCC1 [I-157]: 0.01 to 0.1 µM
CC(C)(NC[C@H](O)c1cccc2[nH]nc(F)c12)C1CC1 [I-20]: < 0.01 µM
CC(C)(C)CNC[C@H](O)c1ccc(F)c2[nH]ncc12 [I-87]: 0.01 to 0.1 µM
CC(C)NC[C@H](O)c1cc(C#N)cc2[nH]ncc12 [I-161]: 0.01 to 0.1 µM
O[C@@H](CNC1CCC1)c1cccc2[nH]cc(F)c12 [I-113]: 0.01 to 0.1 µM
